# credit: patent US20260325654A1

test system: NCIH727; assay: CellTiter-Glo Reagent cancer cell line proliferation assay, NCIH727; assay type: cell-based, human; conditions: Homo sapiens, NCI-H727, 24 h, NCIH727, KRAS(G12V) heterozygous
METRIC_NAME: IC50

Past entries and their recorded results:
[
  {
    "COMPOUND": "C#Cc1c(F)ccc2cc(O)cc(-c3ncc4c(N5CC6CCC(C5)N6C(=O)[C@H](C)C#N)nc(OCC5(CN6CCN(CC7CCN(c8ccc9c(c8)CN(C8CCC(=O)NC8=O)C9=O)CC7)CC6)CC5)nc4c3F)c12 (stereo partly shown)",
    "TARGET_ENTITY": "NCIH727",
    "IC50": "100 to 1000 nM"
  },
  {
    "COMPOUND": "O=CO.[2H]C([2H])([2H])Oc1nc(-c2cc(O)cc3ccc(F)c(C#C)c23)c(F)c2nc(OCC3(CN4CCN(CC5CCN(c6ccc7c(c6)CN(C6CCC(=O)NC6=O)C7=O)CC5)CC4)CC3)nc(N3CC4CCC(C3)N4C(=O)C(C#N)CC(F)(F)F)c12 (stereo not shown)",
    "TARGET_ENTITY": "NCIH727",
    "IC50": "> 1000 nM"
  },
  {
    "COMPOUND": "C#Cc1c(F)ccc2cc(O)cc(-c3nc(OC)c4c(N5CC6CCC(C5)N6C(=O)CC(C)C#N)nc(OCC5(CN6CCC(CN7CCC(c8ccc9c(c8)CN(C8CCC(=O)NC8=O)C9=O)C(F)(F)C7)CC6)CC5)nc4c3F)c12 (stereo not shown)",
    "TARGET_ENTITY": "NCIH727",
    "IC50": "< 100 nM"
  }
]

Shift focus to the following entry.
Data request: Fill in the recorded IC50 for this compound, with NCIH727 as test system: C#Cc1c(F)ccc2cc(O)cc(-c3ncc4c(N5CC6CCC(C5)N6C(=O)CC(C)C#N)nc(OCC5CCCN(CC6CCN(c7ccc8c(c7)CN(C7CCC(=O)NC7=O)C8=O)CC6)C5)nc4c3F)c12 (stereo not shown)
Data returned: < 100 nM
